Where do these numbers come from? They come from ChEMBL document CHEMBL5233202.

Recorded half-life at 1000 µM values for a group of compounds are listed next.
assay: Stability in mouse plasma assessed as half life at 1 mM measured for 24 hrs by LC-MS analysis; format: ADME, cell-free
Non-standard residues stand in square brackets, D forms with d. Residues, ends and D or L forms follow the SMILES beside them. Phe(4-Br) = N[C@@H](Cc1ccc(Br)cc1)C(=O)O; NMeCha = CN[C@@H](CC1CCCCC1)C(=O)O; hArg = N=C(N)NCCCC[C@H](N)C(=O)O; Cha = N[C@@H](CC1CCCCC1)C(=O)O; NMeL = CN[C@@H](CC(C)C)C(=O)O; Nle = CCCC[C@H](N)C(=O)O; Aib = CC(C)(N)C(=O)O

>  <compound>
CCCC[C@H](NC(=O)[C@@H]1CCCN1C(=O)CNC(=O)[C@H](CCCCN)NC(=O)[C@H](Cc1c[nH]cn1)NC(=O)[C@H](CO)NC(=O)[C@H](CC1CCCCC1)N(C)C(=O)[C@H](CCCNC(=N)N)NC(=O)[C@@H]1CCCN1C(=O)[C@H](CCCNC(=N)N)NC(=O)[C@H](CCC(N)=O)NC(=O)[C@H](CCCNC(=N)N)NC(=O)[C@H](CCCNC(=N)N)NC(=O)[C@H](Cc1ccccc1)NC(=O)[C@@H](N)CCCCN)C(=O)NC(C)(C)C(=O)N[C@@H](Cc1ccc(Br)cc1)C(=O)O (H-KFRRQRPR[NMeCha]SHKGP[Nle][Aib][Phe(4-Br)]-OH)

>  <half-life at 1000 µM [min]>
26.4

$$$$
>  <compound>
CCCC[C@H](NC(=O)[C@@H]1CCCN1C(=O)CNC(=O)[C@H](CCCCN)NC(=O)[C@H](Cc1c[nH]cn1)NC(=O)[C@H](CO)NC(=O)[C@H](CC(C)C)N(C)C(=O)[C@H](CCCCNC(=N)N)NC(=O)[C@@H]1CCCN1C(=O)[C@H](CCCNC(=N)N)NC(=O)[C@H](CCC(N)=O)NC(=O)[C@H](CCCNC(=N)N)NC(=O)[C@H](CCCNC(=N)N)NC(=O)[C@H](Cc1ccccc1)NC(=O)[C@@H](N)CCCCN)C(=O)NC(C)(C)C(=O)N[C@@H](Cc1ccc(Br)cc1)C(=O)O (H-KFRRQRP[hArg][NMeL]SHKGP[Nle][Aib][Phe(4-Br)]-OH)

>  <half-life at 1000 µM [min]>
22.8

$$$$
>  <compound>
CCCC[C@H](NC(=O)[C@@H]1CCCN1C(=O)CNC(=O)[C@H](CCCCN)NC(=O)[C@H](Cc1c[nH]cn1)NC(=O)[C@H](CO)NC(=O)[C@H](CC1CCCCC1)NC(=O)[C@H](CCCCNC(=N)N)NC(=O)[C@@H]1CCCN1C(=O)[C@H](CCCNC(=N)N)NC(=O)[C@H](CCC(N)=O)NC(=O)[C@H](CCCNC(=N)N)NC(=O)[C@H](CCCNC(=N)N)NC(=O)[C@H](Cc1ccccc1)NC(=O)[C@@H](N)CCCCN)C(=O)NC(C)(C)C(=O)N[C@@H](Cc1ccc(Br)cc1)C(=O)O (H-KFRRQRP[hArg][Cha]SHKGP[Nle][Aib][Phe(4-Br)]-OH)

>  <half-life at 1000 µM [min]>
31.2

$$$$
